Measured protein stability index of individual entries
B1: DLC1 (parent)
chain: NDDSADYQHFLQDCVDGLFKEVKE

Variants of: B1
testProtocol: protein stability index of a GFP-peptide fusion (GPS, HEK-293T) (PSI 1-6); higher = more stable;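 note: lentivirally expressed fusions sorted by FACS into six bins by GFP to DsRed ratio, PSI derived from sequencing read proportions per bin multiplied by bin number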
conditionInfo: c terminus: a fixed tail appended
assayMetric: protein stability index

[[record]]
biosequence = "NDDSADYQCFLQDCVDGLFKEVKE [H9C]"
assaymetric = "protein stability index"
reportedvalue = 2.53

[[record]]
biosequence = "NNDSADYQHFLQDCVDGLFKEVKE [D2N]"
assaymetric = "protein stability index"
reportedvalue = 2.27

[[record]]
biosequence = "NDDSADYQHFLQDCVDGLFKEVKS [E24S]"
assaymetric = "protein stability index"
reportedvalue = 1.91

[[record]]
biosequence = "NDDSADYQHFLQDCVDGFFKEVKE [L18F]"
assaymetric = "protein stability index"
reportedvalue = 3.33

[[record]]
biosequence = "NDDSADYQHFLQDCVDGLFYEVKE [K20Y]"
assaymetric = "protein stability index"
reportedvalue = 2.88

[[record]]
biosequence = "NDDSADYQHFLQDCVDGLFKEVKW [E24W]"
assaymetric = "protein stability index"
reportedvalue = 1.67

[[record]]
biosequence = "NDDSADYQGFLQDCVDGLFKEVKE [H9G]"
assaymetric = "protein stability index"
reportedvalue = 2.62

[[record]]
biosequence = "NDDSADYKHFLQDCVDGLFKEVKE [Q8K]"
assaymetric = "protein stability index"
reportedvalue = 2.1

[[record]]
biosequence = "NDDSADYQWFLQDCVDGLFKEVKE [H9W]"
assaymetric = "protein stability index"
reportedvalue = 3.03

[[record]]
biosequence = "NDDSADYQHFLQDCVHGLFKEVKE [D16H]"
assaymetric = "protein stability index"
reportedvalue = 3.44

[[record]]
biosequence = "NFDSADYQHFLQDCVDGLFKEVKE [D2F]"
assaymetric = "protein stability index"
reportedvalue = 2.47

[[record]]
biosequence = "NCDSADYQHFLQDCVDGLFKEVKE [D2C]"
assaymetric = "protein stability index"
reportedvalue = 2.14

[[record]]
biosequence = "NDTSADYQHFLQDCVDGLFKEVKE [D3T]"
assaymetric = "protein stability index"
reportedvalue = 2.2

[[record]]
biosequence = "NDDSADYQHFLQDCVDGLFKEPKE [V22P]"
assaymetric = "protein stability index"
reportedvalue = 4.26

[[record]]
biosequence = "NDDSADYQHFLQDCVDGLFKEVDE [K23D]"
assaymetric = "protein stability index"
reportedvalue = 4.98

[[record]]
biosequence = "NDDSADYQHFLQDCVRGLFKEVKE [D16R]"
assaymetric = "protein stability index"
reportedvalue = 4.08

[[record]]
biosequence = "NDDSADYQHFLQDCVDGYFKEVKE [L18Y]"
assaymetric = "protein stability index"
reportedvalue = 3.71

[[record]]
biosequence = "NDDSADYQHFLMDCVDGLFKEVKE [Q12M]"
assaymetric = "protein stability index"
reportedvalue = 3.73

[[record]]
biosequence = "NDDSKDYQHFLQDCVDGLFKEVKE [A5K]"
assaymetric = "protein stability index"
reportedvalue = 2.93

[[record]]
biosequence = "NDDSADYQHFLQDCVDGLCKEVKE [F19C]"
assaymetric = "protein stability index"
reportedvalue = 3.38

[[record]]
biosequence = "NDDSADDQHFLQDCVDGLFKEVKE [Y7D]"
assaymetric = "protein stability index"
reportedvalue = 4.17

[[record]]
biosequence = "NDDKADYQHFLQDCVDGLFKEVKE [S4K]"
assaymetric = "protein stability index"
reportedvalue = 1.36

[[record]]
biosequence = "QDDSADYQHFLQDCVDGLFKEVKE [N1Q]"
assaymetric = "protein stability index"
reportedvalue = 2.69

[[record]]
biosequence = "NDDSADYQHFLQDCVDGLMKEVKE [F19M]"
assaymetric = "protein stability index"
reportedvalue = 3.72

[[record]]
biosequence = "NDDSAIYQHFLQDCVDGLFKEVKE [D6I]"
assaymetric = "protein stability index"
reportedvalue = 2.32

[[record]]
biosequence = "NDDRADYQHFLQDCVDGLFKEVKE [S4R]"
assaymetric = "protein stability index"
reportedvalue = 2.41

[[record]]
biosequence = "NDDSADYQHFLQDCRDGLFKEVKE [V15R]"
assaymetric = "protein stability index"
reportedvalue = 4.73

[[record]]
biosequence = "NDDSADYQHDLQDCVDGLFKEVKE [F10D]"
assaymetric = "protein stability index"
reportedvalue = 5.1

[[record]]
biosequence = "NDDSADYQHFLQDCWDGLFKEVKE [V15W]"
assaymetric = "protein stability index"
reportedvalue = 3.8

[[record]]
biosequence = "NDFSADYQHFLQDCVDGLFKEVKE [D3F]"
assaymetric = "protein stability index"
reportedvalue = 3.3

[[record]]
biosequence = "NDDSADYQSFLQDCVDGLFKEVKE [H9S]"
assaymetric = "protein stability index"
reportedvalue = 3.43

[[record]]
biosequence = "NDDSADYQHFLQDCHDGLFKEVKE [V15H]"
assaymetric = "protein stability index"
reportedvalue = 4.94

[[record]]
biosequence = "NDDSADYQHFLGDCVDGLFKEVKE [Q12G]"
assaymetric = "protein stability index"
reportedvalue = 4.34

[[record]]
biosequence = "NDDSADYYHFLQDCVDGLFKEVKE [Q8Y]"
assaymetric = "protein stability index"
reportedvalue = 1.56


Ref: the supplement of paper PMC10567573
